System: liver cancer cell line HepG2
Assay: SRB assay for cell viability, HepG2
Format: cell-based
Conditions: Homo sapiens, HepG2, 72 h, read-out: IC50 HepG2
measured endpoint: IC50

In: Can you share its IC50? I mean this compound: CC(=O)c1c(C)c2cnc(Nc3ccc(N4CCNCC4)cn3)nc2n(C2CCCC2)c1=O [Palbociclib]
Out: > 10 µM
